Would you mind telling me the reported cytotoxicity at 70.5 h of each entry?
Assay: Human HepG2 cell viability assay in 384 well format
Format: toxicity, cell-based
Design: dose 125 nL, time 70.5 hour; concentration not given beside the values
Conditions: HepG2 cells, read-out: Inhibition
Give the number; % is assumed, so skip it.

Field cytotoxicity at 70.5 h (entry CCOCC(O)CN1CCN(C(=O)c2ccc3c(c2)COC3)CC1 (stereo not drawn) ) reads -8.02

Field cytotoxicity at 70.5 h (entry Cc1noc(C)c1CN1Cc2ccnn2CC(C(=O)NCC2CC2)C1 (stereo not drawn) ) reads -6.51

Field cytotoxicity at 70.5 h (entry "O=C(CN1CCC(c2nnc(C(F)(F)F)o2)CC1)NCc1ccccc1" ) reads -0.907

Field cytotoxicity at 70.5 h (entry "Cc1cnc(C(=O)N2CCCn3c(nc(CN(C)C)cc3=O)C2)cn1" ) reads 9.93

Field cytotoxicity at 70.5 h (entry "CN1CCC2(CC1)CN(C)C(=O)C[C@@H]2C(F)(F)F" ) reads -2.18

Field cytotoxicity at 70.5 h (entry CCc1ccc(S(=O)(=O)N2CCC3(CC(C(=O)NC)=NO3)C2)cc1 (stereo not drawn) ) reads -10.7

Field cytotoxicity at 70.5 h (entry "COCCNC(=O)[C@@H]1CC[C@@H]2[C@@H](CCN2Cc2cnn(C)c2)O1" ) reads -18.7

Field cytotoxicity at 70.5 h (entry "CC(C)COC1CCN(C(=O)c2ccc(C(F)(F)F)[nH]c2=O)CC1" ) reads -4.17

Field cytotoxicity at 70.5 h (entry Cc1ncc2c(n1)CN(CC(O)COc1ccc(C#N)cc1)CC2 (stereo not drawn) ) reads -3.74

Field cytotoxicity at 70.5 h (entry "CC(C)CN(C)Cc1c[nH]nc1-c1ccc(F)cc1F" ) reads -15

Field cytotoxicity at 70.5 h (entry COc1cccc(NC(=O)C(C)Cn2cc(Cl)cn2)c1 (stereo not drawn) ) reads -7.91

Field cytotoxicity at 70.5 h (entry COCC1CN(c2ccc3c(Cl)ccnc3c2F)CCO1 (stereo not drawn) ) reads 20.2

Field cytotoxicity at 70.5 h (entry "CN1CCN(Cc2cn3c(n2)CNCC3)CC1" ) reads 23.1

Field cytotoxicity at 70.5 h (entry CCN1CCCC1Cn1ccc2c(OC)c(OC)ccc2c1=O (stereo not drawn) ) reads -6.22

Field cytotoxicity at 70.5 h (entry CC(C)NC(=O)C1CCC2(CCNCC2)C1 (stereo not drawn) ) reads -1.82

Field cytotoxicity at 70.5 h (entry COc1cccc(C(O)CN2CCN(C(=O)CCC(C)C)CC2)c1 (stereo not drawn) ) reads 9.11

Field cytotoxicity at 70.5 h (entry "CN1CCN(C(=O)C2(NC(N)=O)CCCCC2)Cc2ccccc21" ) reads -7.76

Field cytotoxicity at 70.5 h (entry "Cc1csc(CCNc2ccc(C#N)cc2F)n1" ) reads -10.7

Field cytotoxicity at 70.5 h (entry "COCCN(Cc1ccccc1)c1cc(C)ncn1" ) reads -6.25

Field cytotoxicity at 70.5 h (entry "O=C1CCCN1Cc1nnc2n1CCCN(C(=O)c1ccco1)C2" ) reads 22.7

Field cytotoxicity at 70.5 h (entry "Cc1cc(-n2nc(C)nc2-c2cn(CCN)nn2)ccn1" ) reads -6.15

Field cytotoxicity at 70.5 h (entry Cc1noc(C2CCCN(C(=O)c3cncc(Br)c3)C2)n1 (stereo not drawn) ) reads -10.8

Field cytotoxicity at 70.5 h (entry Cc1nc(C)c(C(C)NCc2c(C)nn(C)c2N(C)C)s1 (stereo not drawn) ) reads -6.29

Field cytotoxicity at 70.5 h (entry "CN(Cc1cccnc1)Cc1cncc2c1CCN(Cc1ccoc1)C2" ) reads -7.08

Field cytotoxicity at 70.5 h (entry "Cc1ccc(N2CCN(C(=O)[C@@H]3CCC(=O)N3)CC2=O)cc1" ) reads -7.74

Field cytotoxicity at 70.5 h (entry O=C(c1ccc2c(c1)COC2)N1CCCC(n2cncn2)C1 (stereo not drawn) ) reads -4.03

Field cytotoxicity at 70.5 h (entry "CC(C)[C@H]1COC(=O)N1Cc1noc(-c2ccccc2)n1" ) reads -7.59

Field cytotoxicity at 70.5 h (entry "CC(C)n1cnnc1CNC(=O)CCCOc1ccccc1F" ) reads -11.9

Field cytotoxicity at 70.5 h (entry "COC(=O)c1cccn1C1CCN(C(=O)c2cc(F)ccc2C)CC1" ) reads -16.9

Field cytotoxicity at 70.5 h (entry "O=C(CCc1ccsc1)N1CCC(Nc2cccnn2)CC1" ) reads -3.07

Field cytotoxicity at 70.5 h (entry "Cc1noc(C)c1CN1CC[C@H]2[C@H]1CCN2CC1CCOCC1" ) reads -5.25

Field cytotoxicity at 70.5 h (entry "Cc1nc(O)c2nnn(C[C@H]3CCCN3C(=O)c3ccccc3F)c2n1" ) reads -0.74

Field cytotoxicity at 70.5 h (entry "O=C(CC1CCN(c2cccnn2)CC1)NC1CCOCC1" ) reads -17

Field cytotoxicity at 70.5 h (entry CN(Cc1nc(C2CC2)no1)C1CCS(=O)(=O)C1 (stereo not drawn) ) reads -4.77

Field cytotoxicity at 70.5 h (entry "CCc1c(C)n(CCOC)c2nc3ccccc3n2c1=O" ) reads 19.8

Field cytotoxicity at 70.5 h (entry "CC(C)CC(=O)N1CC[C@H]2N(C)CC[C@@]2(C(=O)Nc2ccccc2)CC1" ) reads 36.5

Field cytotoxicity at 70.5 h (entry "Cn1ncc2c(N3CCS(=O)(=O)CC3)nc(C3CCCC3)nc21" ) reads -6

Field cytotoxicity at 70.5 h (entry "CCCN1CCN(C(=O)CCn2nc(C(F)(F)F)c(Br)c2C)CC1" ) reads -10.4

Field cytotoxicity at 70.5 h (entry CC1CCCN(Cc2c(C3CCOCC3)[nH]c3ncccc23)C1 (stereo not drawn) ) reads 26.7

Field cytotoxicity at 70.5 h (entry "NC(=O)c1c(SCCN2CCOCC2)sc2c(O)cc(=O)[nH]c12" ) reads 10.5

Field cytotoxicity at 70.5 h (entry CCC(=O)N1CCCC(c2cc(Nc3ncccn3)nc(C)n2)C1 (stereo not drawn) ) reads -5.83

Field cytotoxicity at 70.5 h (entry CN(Cc1ccccc1)CC1(O)CCCN(Cc2ccc(F)cc2)C1=O (stereo not drawn) ) reads -3.64

Field cytotoxicity at 70.5 h (entry Cc1ncsc1C(=O)OCC1CCN(c2ccccc2)C1 (stereo not drawn) ) reads -97.5

Field cytotoxicity at 70.5 h (entry CSc1nc2ccsc2c(=O)n1CC(=O)N1CCCCC1C (stereo not drawn) ) reads -9.11

Field cytotoxicity at 70.5 h (entry "Cc1cc(CN(C)C(=O)c2ccc(N(C)C)nc2)no1" ) reads -7.16

Field cytotoxicity at 70.5 h (entry CC1CCN(Cc2cnc(S(=O)(=O)CC3CC3)n2CC2CCCO2)CC1 (stereo not drawn) ) reads 11.8

Field cytotoxicity at 70.5 h (entry "CS(=O)(=O)c1snnc1C1CCN(Cc2ccncc2)CC1" ) reads -7.11

Field cytotoxicity at 70.5 h (entry "COc1ccc(CN(C)c2ccc(-c3nccn3C)nn2)cc1OC" ) reads -5.32

====

Would you mind telling me the reported cytotoxicity at 70.5 h of each entry?
Assay: Human HepG2 cell viability assay in 384 well format
Type: toxicity, cell-based
Parameters: dose 125 nL, time 70.5 hour; concentration not given beside the values
Settings: HepG2 cells, read-out: Inhibition
Give the number; % is assumed, so skip it.

Field cytotoxicity at 70.5 h (entry Cc1nc(C)n(CC2CN(CCCOc3ccc(F)cc3)CCO2)n1 (configuration not stated) ) reads -17.9

Field cytotoxicity at 70.5 h (entry Cc1cnc(N2CCN(C(C)C(N)=O)CC2)nc1 (configuration not stated) ) reads -1.41

Field cytotoxicity at 70.5 h (entry "Cc1cnc2c(c1NCc1ccc3c(c1)OCO3)c(=O)n(C)c(=O)n2C" ) reads 46.5

Field cytotoxicity at 70.5 h (entry "CCn1nc2c(cc1=O)CN(CC(=O)N(C)c1nccs1)CC2" ) reads 25.4

Field cytotoxicity at 70.5 h (entry "CC(C)CC(=O)N1CC[C@@H]2CN(CC(=O)N(C)C)S(=O)(=O)[C@@H]2CC1" ) reads 1.05

Field cytotoxicity at 70.5 h (entry "Cn1nnnc1SCc1cc2c(cc1Cl)OCO2" ) reads -16

Field cytotoxicity at 70.5 h (entry "COc1cccc(CN2CCC3(CCN(C(=O)C4CC=CC4)CC3)C2)c1" ) reads -3.83

Field cytotoxicity at 70.5 h (entry CN(C)C(CNC(=O)c1nc(N2CCOCC2)ncc1Cl)c1cccs1 (configuration not stated) ) reads -8.97

Field cytotoxicity at 70.5 h (entry CN(C)C(=O)C1(CCCc2ccccn2)CCN1Cc1nccn1C (configuration not stated) ) reads -6.27

Field cytotoxicity at 70.5 h (entry Cc1nc(C)n(CCCNC(=O)C(C)n2ccnc2C(C)C)n1 (configuration not stated) ) reads -5.67

Field cytotoxicity at 70.5 h (entry Cn1cc(C2CCCN2CC(=O)N(CCC#N)Cc2ccco2)cn1 (configuration not stated) ) reads 2

Field cytotoxicity at 70.5 h (entry "O=C(CCc1ccsc1)N1CCC(N2CCNC2=O)CC1" ) reads 3.98

Field cytotoxicity at 70.5 h (entry "CCc1cc(N2CCC(Nc3ccc(Cl)cn3)CC2)ncn1" ) reads 12.5

Field cytotoxicity at 70.5 h (entry "CCCc1nnc(N2CCC(N3CCN(CCO)CC3)CC2)o1" ) reads -5.69

Field cytotoxicity at 70.5 h (entry "CCN(CC)CCNCc1cc(O)c2cc(C)ccc2n1" ) reads -11.3

Field cytotoxicity at 70.5 h (entry "CSCCCn1ccnc1-c1cccc(C#N)c1" ) reads 8.22

Field cytotoxicity at 70.5 h (entry "O=C(CCC1CC1)N1CCC(n2cc(C3(O)CCCC3)nn2)CC1" ) reads 24.3

Field cytotoxicity at 70.5 h (entry "Cc1nc([C@H]2C[C@@H]3CCN(Cc4ccc5c(c4)OCO5)C[C@H]3O2)no1" ) reads -12.3

Field cytotoxicity at 70.5 h (entry "c1ccc(Cc2nc(CNC3CCC4(CCNCC4)CC3)no2)cc1" ) reads -4.21

Field cytotoxicity at 70.5 h (entry Cc1ncoc1C(=O)N1CCOC(CCCC(C)C)C1 (configuration not stated) ) reads -8.44

Field cytotoxicity at 70.5 h (entry O=C1NCCN(C(=O)c2cn3ccsc3n2)C1c1cccc(F)c1 (configuration not stated) ) reads 25.9

Field cytotoxicity at 70.5 h (entry "Cc1nnc(N2CC[C@H]3O[C@H](C(=O)NCc4ccccn4)CC[C@H]32)s1" ) reads -6.62

Field cytotoxicity at 70.5 h (entry Cc1c(C2NC3(CCCC3)C(=O)N2CC2CC2)cc(C#N)n1C (configuration not stated) ) reads -8.72

Field cytotoxicity at 70.5 h (entry COc1cc(N(C)CCC(O)c2ccccc2)ncn1 (configuration not stated) ) reads -3.53

Field cytotoxicity at 70.5 h (entry "COc1ccc(/C=C/CN2CCN(c3ncccc3C(N)=O)CC2)cc1" ) reads -1.81

Field cytotoxicity at 70.5 h (entry COCC1c2c(cnn2C)CCN1C(=O)c1cscn1 (configuration not stated) ) reads -1.37

Field cytotoxicity at 70.5 h (entry "CCCn1nnnc1COc1cc(OC)ccc1C(N)=O" ) reads -7.31

Field cytotoxicity at 70.5 h (entry "CC(C)c1cc(C(=O)N2CCN(c3ncc4c(n3)CCOC4)CC2)on1" ) reads 14.5

Field cytotoxicity at 70.5 h (entry "CC(C)NC(=O)N1C[C@H]2C[C@H](C(=O)N3CCCC3)[C@@H](C1)O2" ) reads 21.9

Field cytotoxicity at 70.5 h (entry "O=C(COc1coc(CN2CCSCC2)cc1=O)c1ccccc1" ) reads -24.2

Field cytotoxicity at 70.5 h (entry CSCc1ccc(N2CCC(C(O)CC(C)C)CC2)nc1 (configuration not stated) ) reads 6.44

Field cytotoxicity at 70.5 h (entry "COc1nc2ccn(CCNc3cc(C)ccn3)c(=O)c2cc1C#N" ) reads -3.78

Field cytotoxicity at 70.5 h (entry "CC(C)C[C@@H]1N[C@H](C(=O)NC2CCOCC2)Cc2c[nH]c3cccc1c23" ) reads -4.79

Field cytotoxicity at 70.5 h (entry Cc1noc(C)c1CN1Cc2cn(C)nc2C(COCC2CC2)C1 (configuration not stated) ) reads 14.4

Field cytotoxicity at 70.5 h (entry "COCCC(=O)N(Cc1cccnc1)CC1CCN(C2CCCC2)CC1" ) reads 3.05

Field cytotoxicity at 70.5 h (entry "CN(Cc1ccc2c(c1)OCCO2)Cc1nc2c(cnn2C)c(=O)[nH]1" ) reads -5.53

Field cytotoxicity at 70.5 h (entry "CC(C)c1cc(C(=O)N2CC[C@@H](c3ccc4c(c3)OCO4)[C@H](O)C2)[nH]n1" ) reads 3.33

Field cytotoxicity at 70.5 h (entry "CN(C)[C@H]1C[C@@H](Cc2cc(CO)on2)C1(C)C" ) reads -14.4

Field cytotoxicity at 70.5 h (entry "c1cc(CNCc2ccc(Cn3cncn3)cc2)c2c(c1)OCCO2" ) reads -11.4

Field cytotoxicity at 70.5 h (entry "CCN(Cc1ccccc1)c1ncnc2c(C)nn(CC)c12" ) reads -4.47

Field cytotoxicity at 70.5 h (entry "COCc1cc(NCCc2ccc(S(N)(=O)=O)cc2)n2nccc2n1" ) reads -20.7

Field cytotoxicity at 70.5 h (entry CC(=O)N1CCC(Cc2cnc(-c3c(C)nn(C)c3C)cn2)C1 (configuration not stated) ) reads -25.8

Field cytotoxicity at 70.5 h (entry "COc1cnc(N2C[C@@H](CN3CCOCC3)[C@@H](CO)C2)nc1" ) reads -5.35

Field cytotoxicity at 70.5 h (entry "Cc1ncsc1C(=O)NCCn1nc2ccccn2c1=O" ) reads -13.7

Field cytotoxicity at 70.5 h (entry "O=C(NCc1cccc(N2CC=CC2)c1)NC1CC1" ) reads -2.22

Field cytotoxicity at 70.5 h (entry CC(c1ccc(F)cc1F)N1CCN(Cc2nccn2C)CC1 (configuration not stated) ) reads -0.0589

Field cytotoxicity at 70.5 h (entry "Cc1cccc(NC(=O)c2ccc(OCc3nnnn3C)cc2)n1" ) reads 14.4
